Test: qHTS assay for small molecule antagonists of retinoid X receptor alpha signaling (AID 588546);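 also: cells stimulated with 9-cis-retinoic acid as agonist; % is scaled to controls: 0 for no effect and ±100 for the full control effect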
Details: HEK293T RXRa-UAS-bla, beta-lactamase ratio, antagonist mode; measured here: W530 green channel, cytotoxicity proxy
Inconclusive results are not listed.
RECORDED ENDPOINT: max response (%)
// return numeric value only (unit: %, not printed)

Dear colleague, I am looking for the recorded max response of the following compound: CC(C)OC(=O)Nc1ccccc1 -6.41

Dear colleague, I am looking for the recorded max response of the following compound: O=Cc1ccccc1 -3.83

Dear colleague, I am looking for the recorded max response of the following compound: Cc1ccc(C)c2ccccc12 -5.36

Dear colleague, I am looking for the recorded max response of the following compound: CC(C)COC(=O)c1ccccc1C(=O)OCC(C)C -12.2

Dear colleague, I am looking for the recorded max response of the following compound: CC(=O)[C@H]1CC[C@H]2[C@@H]3CCC4=CC(=O)CC[C@]4(C)[C@H]3CC[C@]12C 1.42

Dear colleague, I am looking for the recorded max response of the following compound: COC(=O)c1ccccc1C(=O)OC -2.9

----------
Molecular target: Nucleoprotein (Lymphocytic choriomeningitis virus (strain Armstrong)) (UniProt P09992)
Sequence (P09992 whole entry, looked up): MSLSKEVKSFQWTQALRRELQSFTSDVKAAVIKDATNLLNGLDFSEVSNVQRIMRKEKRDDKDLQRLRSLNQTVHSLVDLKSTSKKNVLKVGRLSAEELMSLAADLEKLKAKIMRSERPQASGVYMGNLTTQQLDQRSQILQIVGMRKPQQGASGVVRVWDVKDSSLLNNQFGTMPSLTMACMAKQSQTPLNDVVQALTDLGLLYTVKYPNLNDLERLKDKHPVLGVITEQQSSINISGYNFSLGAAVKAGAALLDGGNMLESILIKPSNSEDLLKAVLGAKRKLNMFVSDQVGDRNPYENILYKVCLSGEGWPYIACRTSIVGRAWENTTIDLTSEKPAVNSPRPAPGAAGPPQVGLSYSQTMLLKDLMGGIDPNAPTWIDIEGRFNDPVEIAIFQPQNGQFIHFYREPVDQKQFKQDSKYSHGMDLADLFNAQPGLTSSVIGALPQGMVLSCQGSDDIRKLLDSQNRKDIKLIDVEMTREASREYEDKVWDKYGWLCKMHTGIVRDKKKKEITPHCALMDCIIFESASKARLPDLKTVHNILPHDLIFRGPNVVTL
Test: qHTS for Inhibitors of the Functional Ribonucleoprotein Complex (vRNP) of Lymphocytic Choriomeningitis Arenaviruses (LCMV): LCMV Primary Screen - GLuc reporter signal (AID 1347086); also: nearly all actives have a fitted effect of over 70% in size
Conditions: LCMV minigenome vRNP cell assay, Gaussia luciferase reporter; series mostly up to 57.5 µM
Records with an inconclusive call do not appear. Active and inactive are the calls of the source. Calls follow the shape of the full dose curve.
Select the matching outcome among Y = active, N = inactive

Just curious, what result did C[C@@H]1COC(Nc2ccc3ncnc(Nc4ccc(OCc5nccs5)c(Cl)c4)c3c2)=N1 get here? Y

Just curious, what result did O=C(c1cncc(Br)c1)N1CCC(N2CCCC2)CC1 get here? N

Just curious, what result did COc1ccc(CCNC(=O)/C=C\c2ccccc2)cc1OC get here? N

Just curious, what result did CON(C)C(=O)N1N=C(c2cc(F)ccc2F)S[C@]1(CCCN)c1ccccc1 get here? N

Just curious, what result did COC(=O)c1ccccc1OC get here? N

Just curious, what result did Cc1ccc(O)c(N=Nc2ccccc2)n1 get here? N

----------
Test: qHTS for Inhibitors of the Functional Ribonucleoprotein Complex (vRNP) of Lymphocytic Choriomeningitis Arenaviruses (LCMV): Viability assay - alamar blue signal for LCMV Primary Screen (AID 1347085); also: nearly all actives have a fitted effect of over 80% in size; also: potency is read from the fitted curve at half-maximal effect
Settings: alamar blue viability counter-screen, LCMV vRNP screen cells; series mostly up to 57.5 µM
Inconclusive results are not listed. Activity calls are given as the source filed them. Calls follow the shape of the full dose curve; tested in HEK293 reporter line.
RECORDED ENDPOINT: Potency

Sample answers from the record:
COMPOUND: Cc1cnc(Nc2ccc(N3CCN(C)CC3)cc2)nc1Nc1cccc(S(=O)(=O)NC(C)(C)C)c1
Potency: 30.6 µM (active)
--
COMPOUND: CC(=O)N[C@H](C(=O)O)C(C)(C)SN=O
Potency: inactive
--
COMPOUND: O=c1cc(-c2ccccc2)c2c(O)cc(O)cc2o1
Potency: inactive
--
COMPOUND: OCC1NCC(O)C(O)C1O (configuration not stated)
Potency: inactive
--
COMPOUND: Cn1c(=O)c2[nH]c(-c3ccccc3)nc2n(C)c1=O
Potency: inactive
--
COMPOUND: CCCc1nc(C(C)(C)O)c(C(=O)O)n1Cc1ccc(-c2ccccc2-c2nn[nH]n2)cc1
Potency: inactive
--
COMPOUND: CC(=O)[C@@]1(O)CCC2C3CC[C@H]4C[C@@H](O)CC[C@]4(C)C3CC[C@@]21C (some centres not stated)
Potency: inactive
--
COMPOUND: COc1cc(C(=O)O[C@@H]2CC3CC[C@]2(C)C3(C)C)ccc1O
Potency: inactive

Dear colleague, I am looking for the recorded Potency of the following compound: CC=CC(C)=CC(C)C(=O)CC(O)CC1CC(=O)NC(=O)C1 (configuration not stated) inactive

Dear colleague, I am looking for the recorded Potency of the following compound: O=C(O)CCCCCCCCCC(=O)O inactive

Dear colleague, I am looking for the recorded Potency of the following compound: Cc1ccc(C(=O)O[C@H](C(=O)O)[C@@H](OC(=O)c2ccc(C)cc2)C(=O)O)cc1 (tested in a mixture with another compound) inactive

Dear colleague, I am looking for the recorded Potency of the following compound: CC(=O)O inactive

Dear colleague, I am looking for the recorded Potency of the following compound: CC(=O)OCCC(C)C inactive

Dear colleague, I am looking for the recorded Potency of the following compound: COc1cc2nc3occc3c(OC)c2cc1OC inactive

Dear colleague, I am looking for the recorded Potency of the following compound: CCCCCCC[C@@H](C/C=C/CCC(=O)O)OC inactive

Dear colleague, I am looking for the recorded Potency of the following compound: COc1cc(C(=O)NC2CCN(C)CC2)ccc1Nc1ncc2c(n1)N(C1CCCC1)CCC(=O)N2C(C)C 15.3 µM (active)

Dear colleague, I am looking for the recorded Potency of the following compound: COc1ccccc1N1CCN(CCCNc2c(C)c(=O)n(C)c(=O)n2C)CC1 inactive

Dear colleague, I am looking for the recorded Potency of the following compound: CCOc1cc2ncc(C#N)c(Nc3ccc(OCc4ccccn4)c(Cl)c3)c2cc1NC(=O)C=CCN(C)C 0.769 µM (active)

Dear colleague, I am looking for the recorded Potency of the following compound: CC(C)=CCc1c(-c2ccc(O)cc2O)oc2cc3c(c(O)c2c1=O)C=CC(C)(C)O3 inactive

Dear colleague, I am looking for the recorded Potency of the following compound: COc1cc(C)ccc1O inactive

Dear colleague, I am looking for the recorded Potency of the following compound: COc1c2c(cc3oc(C)cc(=O)c13)OC(C(C)(C)OC1OC(CO)C(O)C(O)C1O)C2 (configuration not stated) inactive

Dear colleague, I am looking for the recorded Potency of the following compound: COc1cc2c(Nc3ccc(Cl)c(Cl)c3F)ncnc2cc1OCC1C[C@@H]2CN(C)C[C@H]2C1 1.93 µM (active)

----------
Tested on: KB-3-1
Assay: Cytotoxic Profiling of Annotated Libraries Using Quantitative High-Throughput Screening (AID 1296008); also: nearly all actives have a fitted effect of over 60% in size
Conditions: Five cell lines viability, CellTiter-Glo ATP luminescence, 48-72 h
Results filed as inconclusive are left out. The source made the active and inactive calls. Calls come from the whole dose curve; as a rule, active = well fitted inhibition curve with a large enough effect; inconclusive = small, poorly fitted or top-dose-only effect; inactive = flat fitted curve, though single readings scatter. Where a SMILES comes first, the peptide text is derived from it. [ ]: non-standard residue; d: D form. The star is where a group is joined. Dolaproine = CO[C@@H]([C@@H]1CCCN1)[C@@H](C)C(=O)O; Dil = CC[C@H](C)[C@H](NC)[C@@H](CC(=O)O)OC; Doe = c1ccc(C[C@H](N*)c2nccs2)cc1; Aib = CC(C)(N)C(=O)O
Select the matching outcome among yes (1) for active, no (0) for inactive

Just curious, what result did CC[C@H](C)[C@@H]([C@@H](CC(=O)N1CCC[C@H]1[C@H](OC)[C@@H](C)C(=O)N[C@@H](Cc1ccccc1)c1nccs1)OC)N(C)C(=O)[C@@H](NC(=O)C(C)(C)N)C(C)C (H-[Aib]V[Dil][Dolaproine]-Doe) get here? yes (1)

Just curious, what result did CC1=CC(=O)[C@@H](O)[C@]2(C)C3[C@@H](O)[C@@H]4OC(=O)[C@@H]([C@H]4C)[C@]3(C)C(=O)C[C@@H]12 (stereo not given in full) get here? yes (1)

Just curious, what result did COC1CC(O[C@H]2CC[C@@]3(C)C(CCC4C3CC[C@]3(C)C(C5=CC(=O)OC5)CCC43O)C2)OC(C)C1OC1OC(COC2OC(CO)C(O)C(O)C2O)C(O)C(O)C1O (stereo not given in full) get here? yes (1)

Just curious, what result did CC[C@@H]1/C=C/C=C/C[C@H](C)C(O)[C@](C)(O)C(=O)[C@H](C)C(O)[C@H](C)C(=O)[C@H](C)[C@@H](O)[C@H](C)/C=C/C(=O)O[C@H]2[C@@H](C)[C@@H](CC1)O[C@]1(O[C@H](C[C@H](C)O)[C@H](C)CC1=O)[C@@H]2C (stereo not given in full) get here? yes (1)

Just curious, what result did C=C(CO)C(=O)O[C@H]1CC(=C)[C@@H]2C[C@H](O)C(=C)[C@@H]2[C@H]2OC(=O)C(=C)[C@@H]21 get here? no (0)

----------
System: CRL-7250
Test: Cytotoxic Profiling of Annotated Libraries Using Quantitative High-Throughput Screening (AID 1296008); also: nearly all actives have a fitted effect of over 60% in size; also: potency is read from the fitted curve at half-maximal effect
Details: Five cell lines viability, CellTiter-Glo ATP luminescence, 48-72 h
Experimental: Cell-based phenotypic screening is a commonly used approach to discover biological pathways, novel drug targets, chemical probes and high-quality hit-to-lead molecules. […] A pintool (Kalypsys) was used to transfer 23 nL of compound solution to the 1536-well assay plates. […] Plates were left at room temperature for 10 min before imaging the ATP-coupled luminescence using a ViewLux microplate imager (PerkinElmer, Waltham, MA).
Results filed as inconclusive are left out. Active and inactive are the calls of the source. Calls follow the shape of the dose curve; as a rule, active = well fitted inhibition curve with a large enough effect; inconclusive = small, poorly fitted or top-dose-only effect; inactive = flat fitted curve, though single readings scatter.
RECORDED ENDPOINT: Potency

Sample answers from the record:
COMPOUND: C=C(C)[C@@]12O[C@@H]1[C@@]1(C)C(=CC2=O)CC[C@@H](OC(C)=O)[C@@H]1C
Potency: 6.51 µM (active)

COMPOUND: COC1CCCC(C)OC(=O)Cc2cc(O)cc(O)c2C(=O)C1 (stereo not given)
Potency: 14.3 µM (active)

COMPOUND: CO[C@H]1C[C@H](O[C@H]2CC[C@]3(CO)[C@H]4CC[C@]5(C)[C@@H](C6=CC(=O)OC6)CC[C@]5(O)[C@@H]4CC[C@]3(O)C2)O[C@H](C)[C@H]1O
Potency: 0.0709 µM (active)

COMPOUND: CC(=O)OC[C@]12C[C@H](OC(=O)CC(C)C)C(C)=C[C@H]1O[C@@H]1[C@H](O)[C@@H](OC(C)=O)[C@@]2(C)[C@@]12CO2
Potency: 0.0893 µM (active)

COMPOUND: O=C(NCCN1CCC2(CC1)C(=O)NCN2c1cccc(F)c1)c1ccc(F)c(F)c1
Potency: inactive

COMPOUND: COc1cc(O)c2c(c1)CCC[C@@H](O)[C@H](O)C(=O)/C=C\C[C@H](C)OC2=O
Potency: 5.08 µM (active)

COMPOUND: CC1=CC2OC3[C@H](O)C[C@@](C)([C@]34CO4)[C@@]2(CO)[C@H](O)C1=O (stereo not given in full)
Potency: 3.26 µM (active)

COMPOUND: COc1ccc2c3c4n(c2c1)[C@@H](C=C(C)C)OOC(C)(C)C[C@@H]4N1C(=O)[C@@H]2CCCN2C(=O)[C@]1(O)[C@H]3OCC=C(C)C
Potency: inactive

COMPOUND: CC(=O)O[C@H]1CC[C@@]2(CI)C(=CC[C@@H]3[C@@H]2CC[C@]2(C)C(=O)CC[C@@H]32)C1
Potency: inactive

COMPOUND: C[C@]12CC[C@H](O)C[C@H]1CC[C@@H]1[C@@H]2[C@H](O)C[C@]2(C)[C@@H](c3ccc(=O)oc3)CC[C@]12O
Potency: 0.0103 µM (active)

Dear colleague, I am looking for the recorded Potency of the following compound: CC[C@@H]1C[C@H]2CC[C@H](O2)[C@H](C)C(=O)O[C@@H](C)C[C@@H]2CC[C@@H](O2)[C@@H](C)C(=O)O[C@H](CC)C[C@H]2CC[C@H](O2)[C@H](C)C(=O)O[C@@H](C)C[C@@H]2CC[C@@H](O2)[C@@H](C)C(=O)O1 0.385 µM (active)

Dear colleague, I am looking for the recorded Potency of the following compound: CC12CCC3C(C1)c1c(cc(O)c(C(=O)c4ccccc4)c1OC3(C)C)O2 (stereo not given) inactive

Dear colleague, I am looking for the recorded Potency of the following compound: CS[C@]1(CO)C(=O)N2[C@H]3C(=CC=C[C@@H]3O)C[C@@]2(SC)C(=O)N1C inactive

Dear colleague, I am looking for the recorded Potency of the following compound: C[C@]12CCC(=O)C=C1CC[C@@H]1[C@@H]2[C@@H](O)C[C@]2(C)C(=O)CC[C@@H]12 inactive

Dear colleague, I am looking for the recorded Potency of the following compound: COc1cc(O)c2c(c1)/C=C/C[C@@H](O)[C@@H](O)C(=O)CCC[C@H](C)OC2=O 14.3 µM (active)
